B1: CLK3 (parent)
chain: FGEDYYGPSRSRHRRRSRERGPYR

Variants of: B1
Test: protein stability index of a GFP-peptide fusion (GPS, HEK-293T) (PSI 1-6); higher = more stable;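 also: lentivirally expressed fusions sorted by FACS into six bins by GFP to DsRed ratio, PSI derived from sequencing read proportions per bin multiplied by bin number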
Settings: c terminus: a fixed tail appended
# reported protein stability index; entries follow

{"mutant.name": "S17M", "protein stability index": 3.93}
{"mutant.name": "R16K", "protein stability index": 2.46}
{"mutant.name": "S11E", "protein stability index": 2.02}
{"mutant.name": "S11T", "protein stability index": 2.86}
{"mutant.name": "R15Y", "protein stability index": 2.69}
{"mutant.name": "H13L", "protein stability index": 2.18}
{"mutant.name": "E3Q", "protein stability index": 4.38}
{"mutant.name": "R16G", "protein stability index": 2.52}
{"mutant.name": "E3T", "protein stability index": 3.75}
{"mutant.name": "G21M", "protein stability index": 3.38}
{"mutant.name": "R24C", "protein stability index": 1.92}
{"mutant.name": "P8S", "protein stability index": 2.38}
{"mutant.name": "Y6M", "protein stability index": 4.17}
{"mutant.name": "P22F", "protein stability index": 2.62}
{"mutant.name": "R12F", "protein stability index": 2.18}
{"mutant.name": "F1V", "protein stability index": 5.33}
{"mutant.name": "F1S", "protein stability index": 5.1}
{"mutant.name": "F1H", "protein stability index": 4.65}
{"mutant.name": "D4H", "protein stability index": 3.52}
{"mutant.name": "R24K", "protein stability index": 2.62}
{"mutant.name": "S9K", "protein stability index": 2.74}
{"mutant.name": "G7A", "protein stability index": 3.32}
